# assay info: Metabolic stability in rat microsomes assessed as intrinsic clearance per mg protein
# Format: ADME, Microsome
endpoint label: clearance (µL/min/mg)

# compound, clearance, µL/min/mg
rows = [
    ("O=C(Nc1ncc(C(F)(F)F)o1)C1c2ccccc2Oc2ccc(F)cc21 (racemic)", 40),
    ("O=C(Nc1ncc(C(F)(F)F)o1)C1c2ccccc2Oc2cc(F)ccc21 (racemic)", 28),
    ("O=C(Nc1nc(C(F)(F)F)co1)C1c2ccccc2Oc2cc(F)ccc21 (racemic)", 34),
]

###

# assay info: Cmax in rat plasma at 10 mg/kg, po
# Type: ADME, organism-based
# Design: dose 10 mg/kg, route oral
endpoint label: Cmax (ng/mL)

Some solved cases for reference:
# compound, value measured
measured = [
    ("O=C(Nc1nc(C(F)(F)F)co1)C1c2ccccc2Oc2ccccc21", 1330),
    ("O=C(Nc1nc(C(F)(F)F)co1)C1c2ccccc2Oc2c(F)cccc21 (racemic)", 1440),
]

(I) Cc1nc(NC(=O)C2c3ccccc3Oc3ccccc32)no1
(II) O=C(Nc1nc(C(F)(F)F)co1)C1c2cccc(F)c2Oc2c(F)cccc21
query: Please indicate which item has the smaller measured Cmax: I versus II Kindly state the label of the option you pick.
result: I

Source of measurements: ChEMBL document CHEMBL1153313
